- Tested on: Linum usitatissimum
- experiment: Herbicidal activity, postemergence test (Example 66)
- Format: in vivo
- Parameters: key: A rating of 0 indicates growth as untreated control; a rating of 9 indicates death
- test-context: post; 1000 g/ha; assessed visually twenty days after spraying
- Experimental: To evaluate their herbicidal activity, compounds according to the invention are tested using a representative range of plants: ZEAMX Zea mays ORYSA Oryza sativa GLXMA Glycine max BEAVA Beta vulgaris LIUUT Linum usitatissimum AVEFA Avena fatua ECHCG Echinochloa crus-galli SINAL Sinapsis alba […] The herbicidal effects of the test compounds are assessed visually twenty days after spraying the foliage and the soil and are recorded on a 0-9 scale. […]
Exam item: assign fulfilled to entries whose herbicidal effects on a 0-9 scale, LIUUT is below 7 and not fulfilled to entries at or above 7. Note that a value of exactly 7 receives not fulfilled.

Asked: State whether 7 exceeds herbicidal effects on a 0-9 scale, LIUUT recorded for CC(NC(=O)c1nc(C(C)(C)C)ns1)c1cccs1 (racemic) [Example 6] .
Given back: not fulfilled

Asked: Criterion: herbicidal effects on a 0-9 scale, LIUUT strictly below 7. Is it met by CC(NC(=O)c1nsc(-c2ccccc2)n1)c1cccs1 (racemic) [Example 22] ?
Given back: fulfilled

Asked: # TODO verify herbicidal effects on a 0-9 scale, LIUUT < 7 strictly for this molecule: C[C@H](NC(=O)c1nsc(-c2ccc(Cl)cc2)n1)c1ccccc1 [Example 24]
Given back: fulfilled

Asked: For CC(C)(C)c1nsc(C(=O)NCc2cccs2)n1 [Example 7] , is the recorded herbicidal effects on a 0-9 scale, LIUUT below the cut-off of 7?
Given back: fulfilled

Asked: Bench note: check whether O=C(NCc1cccs1)c1nc(-c2ccc(F)cc2)ns1 [Example 14] shows herbicidal effects on a 0-9 scale, LIUUT below 7
Given back: fulfilled

Asked: # TODO verify herbicidal effects on a 0-9 scale, LIUUT < 7 strictly for this molecule: CC(C)c1nsc(C(=O)NC(C)c2cccs2)n1 (racemic) [Example 1]
Given back: not fulfilled

Asked: # check: herbicidal effects on a 0-9 scale, LIUUT < 7 for CC(C)Cc1nsc(C(=O)NC(C)c2cccs2)n1 (racemic) [Example 12]
Given back: not fulfilled

Asked: Problem: For the molecule CC(C)c1nsc(C(=O)N[C@@H](C)c2ccccc2)n1 [Example 10] , is herbicidal effects on a 0-9 scale, LIUUT under 7?
Given back: not fulfilled

Asked: # strict comparison: is reported herbicidal effects on a 0-9 scale, LIUUT < 7? input = CC(C)Cc1nsc(C(=O)NCc2cccs2)n1 [Example 11]
Given back: fulfilled

Asked: Does CCNC(=O)c1nc(-c2ccc(F)cc2)ns1 [Example 17] have herbicidal effects on a 0-9 scale, LIUUT strictly under 7?
Given back: fulfilled

---

- System: Setaria viridis
- experiment: Postemergence herbicidal activity (Example 67)
- Type: in vivo
- test-context: pos, 800 g/ha
recorded-metric: SET VI rating

Asked: Look up and state reported SET VI rating for `O=C(NCc1cccs1)c1nsc(-c2ccccc2)n1`
Given back: 8 (91-99%)

Asked: Tell me SET VI rating reported for COc1ccc(-c2nsc(C(=O)NC(C)c3ccsc3)n2)cc1 (racemic)
Given back: 0

Asked: Give SET VI rating for the following compound: `O=C(Nc1cccc(F)c1)c1nsc(-c2cccc(C(F)(F)F)c2)n1`
Given back: 0

Asked: For the compound CC(NC(=O)c1nsc(-c2ccccc2F)n1)c1cccs1 (racemic) , give its measured SET VI rating value.
Given back: 9 (100% effect)

Asked: Supply reported SET VI rating belonging to this compound: CC(NC(=O)c1nc(-c2cccc(Cl)n2)ns1)c1cccs1 (racemic)
Given back: 6 (65-79%)

Asked: Answer with the recorded SET VI rating for the compound listed here: `COc1ccc(-c2nsc(C(=O)Nc3cccc4c3CCCC4)n2)cc1`
Given back: 4 (30-44%)

Asked: Write down SET VI rating measured for item COc1ccc(-c2nc(C(=O)NC(C)c3cccs3)ns2)cc1 (racemic)
Given back: 8 (91-99%)

Asked: Entry CC(NC(=O)c1nc(-c2cccc(F)c2)ns1)c1cccs1 (racemic) needs its SET VI rating filled in; supply it.
Given back: 3 (16-29%)

Asked: Respond only with SET VI rating recorded for COc1ccc(-c2nsc(C(=O)NC3CCCc4ccccc43)n2)cc1 (racemic)
Given back: 3 (16-29%)

Asked: Provide one value: measured SET VI rating of `O=C(NCc1cccs1)c1nc(-c2cccc(F)c2)ns1`
Given back: 3 (16-29%)

Asked: Query SET VI rating for `C[C@H](NC(=O)c1nsc(-c2ccccc2F)n1)c1ccccc1`
Given back: 8 (91-99%)

Asked: Look up and report measured SET VI rating for this entry: `O=C(Nc1ccc(F)cc1)c1nsc(-c2cccc(C(F)(F)F)c2)n1`
Given back: 3 (16-29%)

Asked: Give the value of SET VI rating reported for the following: `O=C(NCc1cccs1)c1nc(-c2ccccc2F)ns1`
Given back: 5 (45-64%)

Asked: Give a short answer stating reported SET VI rating for `C[C@H](NC(=O)c1nc(-c2c(F)cccc2F)ns1)c1ccccc1` .
Given back: 3 (16-29%)

Asked: For the compound `C[C@H](NC(=O)c1nsc(-c2ccc(F)cc2)n1)c1ccccc1` , give its reported SET VI rating.
Given back: 9 (100% effect)

Asked: Consider the compound `O=C(Nc1ccc(F)cc1F)c1nsc(-c2cccc(C(F)(F)F)c2)n1` and give its recorded SET VI rating.
Given back: 5 (45-64%)

Asked: Determine its reported SET VI rating: O=C(NC1CCCc2ccccc21)c1nc(-c2ccccc2F)ns1 (racemic)
Given back: 5 (45-64%)

Asked: // Input: CC(NC(=O)c1nc(-c2c(F)cccc2F)ns1)c1cccs1 (racemic) . Output its SET VI rating only.
Given back: 2 (6-15%)

Asked: State, in one line, measured SET VI rating of `O=C(Nc1ccccc1)c1nsc(-c2cccc(C(F)(F)F)c2)n1`
Given back: 4 (30-44%)

Asked: Kindly indicate its recorded SET VI rating. Item: `C[C@H](NC(=O)c1nsc(-c2ccccc2)n1)c1ccccc1`
Given back: 8 (91-99%)

Asked: Determine from records and report SET VI rating for `C[C@H](NC(=O)c1nc(-c2cccc(F)c2)ns1)c1ccccc1`
Given back: 6 (65-79%)

Asked: Tell me its SET VI rating given `C[C@H](NC(=O)c1nc(-c2cccc(Cl)n2)ns1)c1ccccc1` as the entry.
Given back: 8 (91-99%)

Asked: Please report the measured SET VI rating for `C[C@H](NC(=O)c1nsc(-c2cccc(C(F)(F)F)c2)n1)c1ccccc1`
Given back: 5 (45-64%)

Asked: Please indicate SET VI rating recorded for `O=C(NCc1cccs1)c1nc(-c2c(F)cccc2F)ns1`
Given back: 0

Asked: Give a short answer stating reported SET VI rating for Cc1ccc(-c2nc(C(=O)NC(C)c3cccs3)ns2)cc1 (racemic) .
Given back: 8 (91-99%)
